Measured Fold change to WT CD80, listed per entry.
molecular target: T1, human CTLA4 (full-length, expressed on CHO cells) (human, UniProt P16410 36-223); experiment: flow cytometry MFI at 33.3 nM relative to WT CD80 ECD-Fc (R&D), CHO/huCTLA4 cells
T1 construct: also called huCTLA4
T1 sequence (P16410 36-223): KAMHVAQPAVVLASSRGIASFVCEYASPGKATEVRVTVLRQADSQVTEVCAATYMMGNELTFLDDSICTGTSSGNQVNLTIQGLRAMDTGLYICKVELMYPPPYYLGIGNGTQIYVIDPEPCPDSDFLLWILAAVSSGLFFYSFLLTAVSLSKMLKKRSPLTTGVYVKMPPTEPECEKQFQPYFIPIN
readout: Fold change to WT CD80 (fold)

1) variant CD80 IgV-Fc Q33L/E35D/M47I/L85Q (Fc fusion, not shown: a dimerising Fc or GST) VIHVTKEVKEVATLSCGHNVSVEELAQTRIYWLKDKKMVLTMMSGDINIWPEYKNRTIFDITNNLSIVILALRPSDEGTYECVVQKYEKDAFKREHLAEVTLSVKAD :: 0.11
2) variant CD80 IgV-Fc A26E/E35D/M43T/M47L/L85Q/R94Q (Fc fusion, not shown: a dimerising Fc or GST) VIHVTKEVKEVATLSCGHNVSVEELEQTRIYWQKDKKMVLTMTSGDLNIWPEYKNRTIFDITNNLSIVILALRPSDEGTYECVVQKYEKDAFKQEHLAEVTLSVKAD :: 1.56
3) variant CD80 IgV-Fc Q33L/E35D/M47V/L85Q (Fc fusion, not shown: a dimerising Fc or GST) VIHVTKEVKEVATLSCGHNVSVEELAQTRIYWLKDKKMVLTMMSGDVNIWPEYKNRTIFDITNNLSIVILALRPSDEGTYECVVQKYEKDAFKREHLAEVTLSVKAD :: 0.42
4) variant CD80 IgV-Fc Q33L/E35D/M47I/T62N/L85Q (Fc fusion, not shown: a dimerising Fc or GST) VIHVTKEVKEVATLSCGHNVSVEELAQTRIYWLKDKKMVLTMMSGDINIWPEYKNRTIFDINNNLSIVILALRPSDEGTYECVVQKYEKDAFKREHLAEVTLSVKAD :: 0.01
5) variant CD80 IgV-Fc A26E/Q33R/E35D/M47L/L85Q/K86E (Fc fusion, not shown: a dimerising Fc or GST, Fc fusions are described in general as dimers) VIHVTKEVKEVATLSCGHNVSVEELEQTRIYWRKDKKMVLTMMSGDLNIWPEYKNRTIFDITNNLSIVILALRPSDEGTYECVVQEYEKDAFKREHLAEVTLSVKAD :: 0.01
6) variant CD80 IgV-Fc H18L/V22A/E35D/M47L/N48T/L85Q (Fc fusion, not shown: a dimerising Fc or GST) VIHVTKEVKEVATLSCGLNVSAEELAQTRIYWQKDKKMVLTMMSGDLTIWPEYKNRTIFDITNNLSIVILALRPSDEGTYECVVQKYEKDAFKREHLAEVTLSVKAD :: 2.09
7) variant CD80 IgV-Fc Q33L/E35D/T41S/M43I (Fc fusion, not shown: a dimerising Fc or GST) VIHVTKEVKEVATLSCGHNVSVEELAQTRIYWLKDKKMVLSMISGDMNIWPEYKNRTIFDITNNLSIVILALRPSDEGTYECVVLKYEKDAFKREHLAEVTLSVKAD :: 0.04
8) variant CD80 IgV-Fc E7D/E35D/M47I/L97Q (Fc fusion, not shown: a dimerising Fc or GST) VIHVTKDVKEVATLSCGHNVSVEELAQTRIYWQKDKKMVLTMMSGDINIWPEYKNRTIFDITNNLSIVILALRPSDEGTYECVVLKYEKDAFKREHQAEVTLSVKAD :: 1.52
